target: FKBP51 (Homo sapiens)
Sequence (Q13451 whole entry): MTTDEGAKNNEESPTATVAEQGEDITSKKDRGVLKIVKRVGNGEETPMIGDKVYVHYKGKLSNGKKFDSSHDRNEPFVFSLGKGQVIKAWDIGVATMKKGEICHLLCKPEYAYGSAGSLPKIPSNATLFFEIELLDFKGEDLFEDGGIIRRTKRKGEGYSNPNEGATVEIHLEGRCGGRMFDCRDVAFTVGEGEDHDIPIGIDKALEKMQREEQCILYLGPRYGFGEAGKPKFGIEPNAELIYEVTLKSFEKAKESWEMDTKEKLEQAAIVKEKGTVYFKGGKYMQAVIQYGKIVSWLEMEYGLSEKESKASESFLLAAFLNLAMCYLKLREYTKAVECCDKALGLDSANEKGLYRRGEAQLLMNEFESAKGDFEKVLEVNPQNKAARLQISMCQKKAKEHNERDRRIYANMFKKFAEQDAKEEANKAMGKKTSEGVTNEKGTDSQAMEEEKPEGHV
The following compounds are listed with their measured Ki values.

Previously resolved entries follow.
compound	Ki
C=C[C@H]1CN([C@H](C)CO)C(=O)[C@@H]2CCC[C@H]1N2S(=O)(=O)c1ccc2ncsc2c1 [17b]	> 5 µM
C=C[C@H]1CN([C@H](C)c2ccccn2)C(=O)[C@@H]2CCC[C@H]1N2S(=O)(=O)c1cc(Cl)cc(Cl)c1 [6e]	> 1 µM

Now for a further compound.
Record C=C[C@H]1CN([C@H](C)COC)C(=O)[C@@H]2CCC[C@H]1N2S(=O)(=O)c1cc(Cl)cc(Cl)c1 [22c] ; system FKBP51 (Homo sapiens); Ki = > 5 µM
